List of remaining at 1 h, 1 µM values.
# Protocol summary: Protease stability in simulated intestinal fluids (FaSSIF) (Table 7)
# Assay type: in vitro ADME
# Condition info: fassif with pancreatin, 60 min, 37° C., read-out: Remaining percentage of peptide compound, FaSSIF 60 (min)
Numbered stars: 1 amine (or outer) side, 2 acyl side, 3 side chain; on linkers, the order of the positions; unused ones are H or OH. Bridge positions count the residues as written; N and C are the ends. Square brackets hold non-standard residues; d marks the D form. Peptide text beside a SMILES is read from it. * marks the point of attachment. Lys(Me,(CH2)4NMe(CH2)4CO) = CN(CCCCC(=O)[*:3])CCCCN(C)CCCC[C@H](N[*:1])C(=O)[*:2]; Trp(1-Me) = Cn1cc(C[C@H](N)C(=O)O)c2ccccc21; NH(2-(3-pyridyl)ethyl) = c1cncc(CCN*)c1; 2Nal = N[C@@H](Cc1ccc2ccccc2c1)C(=O)O; 3Pal = N[C@@H](Cc1cccnc1)C(=O)O; Thp = NC1(C(=O)O)CCOCC1; Me2NCH2CH2 = CN(C)CC*; Aib = CC(C)(N)C(=O)O; Sar = CNCC(=O)O
Supply the numeric figure in %, leaving out any unit text.

CN(C)CCOc1ccc(C[C@@H]2NC(=O)C3(CCOCC3)NC(=O)[C@H](CCC(N)=O)NC(=O)[C@H](Cc3cn(C)c4ccccc34)NC(=O)CCCCN(C)CCCCN(C)CCCC[C@@H](C(=O)NCC(=O)NCCc3cccnc3)NC(=O)C(C)(C)NC(=O)[C@H](Cc3ccc4ccccc4c3)NC2=O)cc1 [compound 25] ([Trp(1-Me)]Q[Thp]Y(Me2NCH2CH2)[2Nal][Aib][Lys(Me,(CH2)4NMe(CH2)4CO)]G-{NH(2-(3-pyridyl)ethyl)}; lactam N-7) ... 97

Q: Which measured remaining at 1 h, 1 µM value corresponds to CC(=O)NCCCC[C@@H]1NC(=O)[C@H](Cc2c[nH]c3ccccc23)NC(=O)CCCCN(C)CCCCN(C)CCCC[C@@H](C(=O)N[C@@H](CO)C(=O)N[C@@H](Cc2cccnc2)C(=O)N(C)CC(N)=O)NC(=O)C(C)(C)NC(=O)[C@H](Cc2ccc3ccccc3c2)NC(=O)[C@H](Cc2ccc(OCCN(C)C)cc2)NC(=O)C2(CCOCC2)NC1=O [compound 42] (WK(Ac)[Thp]Y(Me2NCH2CH2)[2Nal][Aib][Lys(Me,(CH2)4NMe(CH2)4CO)]S[3Pal][Sar]-NH2; lactam N-7) ?
Result: 59
